System: Amaranthus retroflexus
Test: Post-emergence herbicidal activity against Amaranthus retroflexus assessed as growth inhibition at emulsified concentrate of 150 g/ai ha after 15 days by greenhouse test
Format: functional
ENDPOINT_NAME: inhibition (INH) (%)

INSERT INTO assay_data (molecule, endpoint_name, unit_of_measurement, val) VALUES
  ('CCOC(=O)C(C)Sc1nc2cc(-n3nc(C(C)(C)C)oc3=O)c(F)cc2s1 (configuration not stated)', 'inhibition (INH)', '%', 90),
  ('CC(C)(C)OC(=O)CSc1nc2cc(-n3nc(C(C)(C)C)oc3=O)c(Cl)cc2s1', 'inhibition (INH)', '%', 40),
  ('CCOC(=O)CCCSc1nc2cc(-n3nc(C(C)(C)C)oc3=O)c(F)cc2s1', 'inhibition (INH)', '%', 90),
  ('COC(=O)CSc1nc2cc(-n3nc(C(C)(C)C)oc3=O)c(Br)cc2s1', 'inhibition (INH)', '%', 80),
  ('C=CCSc1nc2cc(-n3nc(C(C)(C)C)oc3=O)c(F)cc2s1', 'inhibition (INH)', '%', 60),
  ('CCCOC(=O)CSc1nc2cc(-n3nc(C(C)(C)C)oc3=O)c(Br)cc2s1', 'inhibition (INH)', '%', 50),
  ('CCOC(=O)CCSc1nc2cc(-n3nc(C(C)(C)C)oc3=O)c(Br)cc2s1', 'inhibition (INH)', '%', 0);
